- Measured On: Hck (UniProt P08631)
- Sequence (P08631 whole entry, looked up): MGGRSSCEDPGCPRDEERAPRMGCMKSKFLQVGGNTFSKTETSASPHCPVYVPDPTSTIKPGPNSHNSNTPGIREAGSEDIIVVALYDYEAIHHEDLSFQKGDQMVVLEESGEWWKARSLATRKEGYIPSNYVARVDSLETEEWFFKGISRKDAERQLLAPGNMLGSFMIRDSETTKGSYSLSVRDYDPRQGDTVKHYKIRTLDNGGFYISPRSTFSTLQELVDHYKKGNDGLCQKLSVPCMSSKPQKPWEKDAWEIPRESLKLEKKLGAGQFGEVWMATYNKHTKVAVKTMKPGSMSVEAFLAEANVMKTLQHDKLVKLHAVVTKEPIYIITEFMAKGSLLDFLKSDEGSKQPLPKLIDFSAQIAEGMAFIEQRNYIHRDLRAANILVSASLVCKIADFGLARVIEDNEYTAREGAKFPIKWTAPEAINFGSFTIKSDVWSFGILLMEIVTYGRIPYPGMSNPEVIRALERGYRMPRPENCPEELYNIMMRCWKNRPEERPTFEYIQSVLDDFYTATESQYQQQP
- Assay Notes: phosphorylation enrichment, bacterial display (enrichment ratio); higher = better substrate or ligand; peptides without Tyr show the background
Experimental Readout: phosphorylation enrichment

Below: 8 sequences and their reported phosphorylation enrichment.
Entry KPEKTYGLRKE [CEP43_Y267] has what phosphorylation enrichment?
0.503

Entry EVEPRYVVLFD [ERCC4_Y577_YF] has what phosphorylation enrichment?
0.505

Entry TRDVNYGWTIR [MT-CYB_Y75_I78T] has what phosphorylation enrichment?
0.478

Entry YETDYYQKGGK [INSR_Y1190_R1191Q] has what phosphorylation enrichment?
0.639

Entry SERNNYSRVAN [CWC22_Y797] has what phosphorylation enrichment?
0.382

Entry MPPHIYAITDT [MYH9_Y151] has what phosphorylation enrichment?
1.22

Entry KVDKEYEVGVR [GHR_Y226_R229G] has what phosphorylation enrichment?
0.452

Entry GMSQAYSSSQR [DES_Y5] has what phosphorylation enrichment?
0.325

Further cases:
Entry YGAHNHHPLPV [OAT_Y55_Y55H] has what phosphorylation enrichment?
0.458

Entry FADIAYSYRHG [PAH_Y166_N167S] has what phosphorylation enrichment?
0.568

Entry MAALSYVSEIG [BPIFB2_Y36_K31M] has what phosphorylation enrichment?
0.4

###

This listing pairs sequences with measured SH2 binding enrichment.
- Measured On: SHP2-C SH2
- Assay Notes: SH2 binding enrichment of the phosphorylated peptide, bacterial display (enrichment ratio); higher = better substrate or ligand; peptides without Tyr show the background
// return a plain number; no unit text

Below: 2 sequences and their reported SH2 binding enrichment.
Entry KNKNRYKNILP [PTPN11_Y279] has what SH2 binding enrichment?
0.888

Entry AAILGYCHGEA [XPC_Y669_R671H] has what SH2 binding enrichment?
0.701

Further cases:
Entry SGGLDYGMVGG [TNRC6B_Y1382_M1380L] has what SH2 binding enrichment?
0.724

Entry PQGVRYIYTID [DCX_Y103] has what SH2 binding enrichment?
15.4

Entry LVKDGYQMAQP [CSF1R_Y873] has what SH2 binding enrichment?
1.01

Entry LHRHAYPEQRQ [DPPA2_Y127] has what SH2 binding enrichment?
1.11

Entry SIKNKYVTALY [KCNH2_Y611_D609N] has what SH2 binding enrichment?
0.932

Entry NIEPVYLNMLL [ATR_Y317] has what SH2 binding enrichment?
1.04

Entry ADAGMYGVLPW [PLP1_Y207_R205G] has what SH2 binding enrichment?
0.74

Entry PGGKIYISPLK [RB1_Y805_N803K] has what SH2 binding enrichment?
1.12

Entry THEVRYISAGQ [SLCO4A1_Y77_V78I] has what SH2 binding enrichment?
0.65

Entry VHNLDYYKMTT [FGFR3_Y647_K650M] has what SH2 binding enrichment?
0.643

Entry GESLTYASTTF [C1orf162_Y120] has what SH2 binding enrichment?
0.679

Entry EQQNMYRLKVL [ABCC6_Y372] has what SH2 binding enrichment?
0.566

Entry GMSQAYSSSQR [DES_Y5] has what SH2 binding enrichment?
0.417

Entry IHADIYRWFNI [MARS1_Y344] has what SH2 binding enrichment?
1.17

Entry ANNEFYFRVCA has what SH2 binding enrichment?
0.567

Entry VAVVQYSGTGQ [COL6A1_Y878] has what SH2 binding enrichment?
0.413

Entry WIPIQYLIISE [NOG_Y222_P223L] has what SH2 binding enrichment?
1.12

###

- Measured On: c-Src SH2
- Assay Notes: SH2 binding enrichment of the phosphorylated peptide, bacterial display (enrichment ratio); higher = better substrate or ligand; peptides without Tyr show the background
Experimental Readout: SH2 binding enrichment

Below: 3 sequences and their reported SH2 binding enrichment.
Entry NFFEFYVDDPP [GCHFR_Y48_YF] has what SH2 binding enrichment?
0.533

Entry EVEPRYVVLYD [ERCC4_Y577] has what SH2 binding enrichment?
8.72

Entry SLFPGYNFRFA [P2RX7_Y291_YF] has what SH2 binding enrichment?
0.819

Further cases:
Entry LYSDHYSPSGR [TMPRSS12_Y23] has what SH2 binding enrichment?
0.473

Entry TRFDEYLEVTK [MAP1A_Y2217_H2214Y_YF] has what SH2 binding enrichment?
0.528

Entry AIFEGYALPHA [ACTC1_Y171_P166A_YF] has what SH2 binding enrichment?
5.11

Entry IALSKYGRVKW [FGF6_Y186_R191W] has what SH2 binding enrichment?
1.33

Entry KTGNIYRTEFG [MRPL3_Y265_M261T_YF] has what SH2 binding enrichment?
0.547

Entry INMKKYCKKDF [NTN1_Y490_YF] has what SH2 binding enrichment?
0.807

Entry PFIDSYEKDVA [PGM1_Y521_L516P_YF] has what SH2 binding enrichment?
0.595

Entry KVDKEYEVGVR [GHR_Y226_R229G] has what SH2 binding enrichment?
0.534

Entry IVRSLYEDVED [VHL_Y185_L188V] has what SH2 binding enrichment?
11.8

Entry ANNEFYFRVCA has what SH2 binding enrichment?
0.37

###

This listing pairs sequences with measured phosphorylation enrichment.
- System: AncSZ
- Assay Notes: phosphorylation enrichment, bacterial display (enrichment ratio); higher = better substrate or ligand; peptides without Tyr show the background
// return a plain number; no unit text

Hi! What's the reported phosphorylation enrichment for FTGDIYSSSNL [LZTR1_Y141_N143S_YF] on AncSZ?
0.748

Hi! What's the reported phosphorylation enrichment for KFDLMYAKWAF [TUBA3E_Y399] on AncSZ?
1.18

Hi! What's the reported phosphorylation enrichment for ELTSKYRGGGG [HBA1_Y141_V136E] on AncSZ?
0.515

Hi! What's the reported phosphorylation enrichment for NIEPVYLNMLL [ATR_Y317] on AncSZ?
1.58

Hi! What's the reported phosphorylation enrichment for CLGNQYVNVMN [SLC3A1_Y461_R456C] on AncSZ?
1.11

Further cases:
Hi! What's the reported phosphorylation enrichment for LDFNEYFRDLN [HPRT1_Y198_YF] on AncSZ?
1.24

Hi! What's the reported phosphorylation enrichment for FQQLFYLLQTN [IQGAP2_Y890_YF] on AncSZ?
1.51

Hi! What's the reported phosphorylation enrichment for TVDASYFGGRG [ANTXR2_Y380_YF] on AncSZ?
0.569

Hi! What's the reported phosphorylation enrichment for RHCSGYVLIAM [EFR3A_Y73_R70C] on AncSZ?
0.885

Hi! What's the reported phosphorylation enrichment for ALHHPYGCDVE [ABL2_Y80_R78H] on AncSZ?
0.803

###

- Measured On: c-Src SH2
- Assay Notes: SH2 binding enrichment of the phosphorylated peptide, bacterial display (enrichment ratio); higher = better substrate or ligand; peptides without Tyr show the background
Experimental Readout: SH2 binding enrichment
// return a plain number; no unit text

Hi! What's the reported SH2 binding enrichment for NFRTTYVNANE [KCNH2_Y475] on c-Src SH2?
2.03

Hi! What's the reported SH2 binding enrichment for CHKRTYKVTGL on c-Src SH2?
1.07

Hi! What's the reported SH2 binding enrichment for VAFLFYKSIGP [ADGRL4_Y302_V300L_YF] on c-Src SH2?
0.301

Hi! What's the reported SH2 binding enrichment for KPEKTYGLRKE [CEP43_Y267] on c-Src SH2?
0.823

Hi! What's the reported SH2 binding enrichment for NACGLYHTMNG [GATA5_Y216_K218T] on c-Src SH2?
4.06

Hi! What's the reported SH2 binding enrichment for ILDEAYVMAGA [ERBB2_Y772_V777A] on c-Src SH2?
0.543

Further cases:
Hi! What's the reported SH2 binding enrichment for VHKKGYNKLNQ [ZNF676_Y98_E96K] on c-Src SH2?
0.962

Hi! What's the reported SH2 binding enrichment for HYGNNYTDVLQ [MACC1_Y803_R804T] on c-Src SH2?
2.72

Hi! What's the reported SH2 binding enrichment for AAILGYCHGEA [XPC_Y669_R671H] on c-Src SH2?
0.549

Hi! What's the reported SH2 binding enrichment for NLNGKYFKPRA [ANGPTL3_Y417_N418Y_YF] on c-Src SH2?
0.961

Hi! What's the reported SH2 binding enrichment for RAYSWYQHQRA [NDST1_Y714] on c-Src SH2?
1.18

###

- System: c-Abl (mouse)
- Assay Notes: phosphorylation enrichment, bacterial display (enrichment ratio); higher = better substrate or ligand; peptides without Tyr show the background
This listing pairs sequences with measured phosphorylation enrichment.
// return a plain number; no unit text

Entry GLAKEYTDPET [CSNK1G2_Y195_I196T] has what phosphorylation enrichment?
0.662

Entry SERNNYSRVAN [CWC22_Y797] has what phosphorylation enrichment?
0.51

Entry TARREYMHSPS [CPOX_Y429_W427R] has what phosphorylation enrichment?
0.507

Entry CNRADYSKLAP [GNE_Y22] has what phosphorylation enrichment?
0.556

Entry DLGIQYKVLKP [CTNNA1_Y177_A179V] has what phosphorylation enrichment?
0.759

Entry SIRFNYLLDVL [FGFR4_Y237_YF] has what phosphorylation enrichment?
0.706
